- PROTOCOL_NOTES: A CellTox Green Cytotoxicity Assay to monitor cytotoxicity in HEK293 cells - 40 hour (AID 1224871); also: nearly all actives have a fitted effect of over 45% in size
- CONDITIONS: CellTox Green fluorescence; series mostly up to 76.8 µM
Results filed as inconclusive are left out. Activity calls are given as the source filed them. Calls follow the shape of the dose curve; as a rule, active = well fitted activation curve with a large enough effect in the repeat runs; inconclusive = weak or mixed curves; inactive = flat fitted curve, though single readings scatter.
Write down one outcome, taken from active, inactive

// known answers, use as guide
* CC(C)=CCCC(C)O (centres undefined) | inactive
* CCc1ccc(O)c(C(C)(C)C)c1 | active
* O=C(Nc1ccc(Cl)c(Cl)c1)c1cc(Cl)cc(Cl)c1O | active
* CCCCCCOc1ccc(O)cc1 | active
* CSc1ccc2c(c1)N(CCC1CCCCN1C)c1ccccc1S2 (centres undefined) | active
* Nc1cc(Cl)c([N+](=O)[O-])cc1O | inactive
* CO[Si](CCCNCCNCCN)(OC)OC | inactive
* CC1(C)C(=O)N(Br)C(=O)N1Br | inactive
* Cc1cccc(N(C)C)c1 | inactive
* O=c1cccc[nH]1 | inactive

Record request — test call for `C=CC(=O)OCCOCC(CC)(COCCOC(=O)C=C)COCCOC(=O)C=C` active

Short answer needed: outcome of this test for `S=P(N1CC1)(N1CC1)N1CC1` ? inactive

For this molecule, state the assay outcome: `O=C(O)CCn1c2c(c3ccccc31)C[C@H](NS(=O)(=O)c1ccc(F)cc1)CC2` inactive

Test call, this molecule: `ClC/C=C\CCl` inactive

What outcome does the record of this test show for CN1[C@@H]2CC[C@@H]1CC(OC(=O)C(CO)c1ccccc1)C2 (some centres undefined) ? inactive

Hello, I am checking results. What call was entered for `CC(=O)C=O` ? inactive

Kindly provide the recorded test outcome for the following molecule: `[O]=[Zr]` inactive

Returns: the outcome recorded for `CN1CN(C)CN(C)C1` in this assay. inactive

So what was the verdict on `CC(C)=C1CC[C@@H](C)CC1=O` in this test? inactive

For CCC(C)c1ccccc1 (centres undefined) , which call appears in the assay record? inactive

Returns: the outcome recorded for `Clc1cc(Cl)c(-c2c(Cl)c(Cl)cc(Cl)c2Cl)cc1Cl` in this assay. inactive

Identify the outcome logged in this assay for the molecule shown: `Cc1ccc(O)cn1` inactive

Which result was noted for this molecule in the test: `CCCCOc1ccc(C(=O)CCN2CCCCC2)cc1` active

// return assay outcome for `COC(=O)[C@]1(C)CCC[C@@]2(C)[C@H]1CC=C1C=C(C(C)C)CC[C@@H]12` active

====

- SYSTEM_NAME: Nuclear receptor subfamily 1 group I member 3 (Homo sapiens) (UniProt Q14994)
- Sequence (Q14994 whole entry, looked up): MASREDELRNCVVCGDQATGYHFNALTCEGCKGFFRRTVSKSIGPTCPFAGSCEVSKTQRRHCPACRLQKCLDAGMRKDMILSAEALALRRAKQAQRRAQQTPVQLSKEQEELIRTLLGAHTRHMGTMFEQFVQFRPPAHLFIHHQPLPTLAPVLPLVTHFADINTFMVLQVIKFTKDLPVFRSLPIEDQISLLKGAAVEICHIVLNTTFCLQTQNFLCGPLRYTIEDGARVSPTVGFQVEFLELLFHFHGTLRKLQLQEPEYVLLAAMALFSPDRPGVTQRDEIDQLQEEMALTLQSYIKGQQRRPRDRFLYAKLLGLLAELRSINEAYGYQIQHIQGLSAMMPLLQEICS
- PROTOCOL_NOTES: qHTS assay to identify small molecule antagonists of the constitutive androstane receptor (CAR) signaling pathway (AID 1224838);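 also: HepG2 cells stably expressing hCAR with CYP2B6 luciferase reporter stimulated by CITCO; nearly all actives have a fitted effect of over 40% in size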
- CONDITIONS: HepG2-CYP2B6-hCAR luciferase, CITCO-stimulated, 24 h; series mostly up to 92.4 µM
Records with an inconclusive call do not appear. Activity calls are given as the source filed them. Calls follow the shape of the dose curve; as a rule, active = well fitted inhibition curve with a large enough effect in the repeat runs; inconclusive = weak or mixed curves, or effect the other way; inactive = no such curve, though single readings can be large or run the other way.
Hello, when you answer, please use one of the following outcomes: True = active, False = inactive

Some entries whose results are on file:
• Cc1cccc(C)c1NC(=O)CN1CCN(CCCC(c2ccc(F)cc2)c2ccc(F)cc2)CC1 = False
• NC(=O)C(=O)N/N=C/c1ccc([N+](=O)[O-])o1 = False
• CC1=C(/C=C/C(C)=C/C=C/C(C)=C\C=O)C(C)(C)CCC1 = False
• N#CSCSc1nc2ccccc2s1 = True
• CC[N+](CC)(CC)Cc1ccccc1 = False

Outcome logged for `C/C=C/C(=O)C1=C(C)CCCC1(C)C` in this assay: False

Tell me the recorded outcome of this test for CCCCOC(=O)C(C)CC (stereo not drawn) . False

Short answer needed: outcome of this test for `C=CC(=C)CCC=C(C)C` ? True
